Molecular target: native mouse MET on living cells (mouse, UniProt P16056 25-1379)
Test: cell-based or functional assay
readoutType: scatter score 0-4, MLP29, 3.000 nM (score)
// return numeric value only (unit: score, not printed)

binder: 71C3 chimeric llama-human IgG1 mAb (antibody, V domains shown, llama VH on human IgG1 CH1-CH2-CH3, llama VL on human lambda CL) VH: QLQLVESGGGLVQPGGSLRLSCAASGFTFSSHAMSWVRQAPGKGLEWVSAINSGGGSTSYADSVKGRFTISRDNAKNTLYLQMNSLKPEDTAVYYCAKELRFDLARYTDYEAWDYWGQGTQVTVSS VL: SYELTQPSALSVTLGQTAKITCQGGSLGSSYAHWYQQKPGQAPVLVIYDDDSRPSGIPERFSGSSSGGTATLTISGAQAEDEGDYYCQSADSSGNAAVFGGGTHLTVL
assayValue: 4

Incoming: In one line, give reported scatter score 0-4, MLP29, 3.000 nM of the entry 71G2 chimeric llama-human IgG1 mAb (antibody, V domains shown, llama VH on human IgG1 CH1-CH2-CH3, llama VL on human lambda CL) VH: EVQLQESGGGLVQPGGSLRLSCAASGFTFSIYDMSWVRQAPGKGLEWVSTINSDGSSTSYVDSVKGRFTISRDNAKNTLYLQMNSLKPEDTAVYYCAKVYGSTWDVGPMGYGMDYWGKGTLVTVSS VL: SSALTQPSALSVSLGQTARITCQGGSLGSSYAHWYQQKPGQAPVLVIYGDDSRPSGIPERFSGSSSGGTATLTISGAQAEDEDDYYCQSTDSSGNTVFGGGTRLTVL .
Outgoing: 4

Provenance of the data: patent US20210087281A1
